target: human GLP-1 receptor (GLP1R) (human, UniProt P43220 24-463); experiment: cell-based or functional assay
Numbered stars: 1 amine (or outer) side, 2 acyl side, 3 side chain; on linkers, the order of the positions; unused ones are H or OH. Square brackets hold non-standard residues; d marks the D form. Primed or numbered codes have the meaning given here. Side chains are listed from the residue outwards. Ends that are not written are not given here. Phe(4-CH2NH2) = NCc1ccc(C[C@H](N)C(=O)O)cc1; γGlu = O=C(O)[C@H](CCC(=O)[*:2])N[*:1]; Met(O2) = CS(=O)(=O)CC[C@H](N)C(=O)O; αMeD = C[C@](N)(CC(=O)O)C(=O)O; PEG2′ = not defined here; AEEA = NCCOCCOCC(=O)O; Aib = CC(C)(N)C(=O)O
measure-name: GLP1R EC50 human (nM)
The figure you give is taken to be in nM; do not add the unit.

Field GLP1R EC50 human (entry H[Aib]QGTFTSDYSKYLDARAAQDFVK([PEG2′-PEG2′-PEG2′-γGlu-C18‑OH])WL[Met(O2)]DT-NH2 [TP680] ) reads 0.19

# GLP1R EC50 human (binder: H[Aib]QGTFTSDYSKYLDERAA[Phe(4-CH2NH2)]([AEEA-AEEA-γGlu-C20‑OH])DFVQWLLKT-NH2 [TP586] ) is 1.23

Lookup result for H[Aib]QGTFTSDYSKYLDERAAK([AEEA-AEEA-γGlu-C20‑OH])DFVQWL[Met(O2)][αMeD]T-NH2 [TP589] ; measured GLP1R EC50 human: 2.07
